biological target: human recombinant GST cleaved CSNK1D (Homo sapiens, UniProt P48730); construct: GST (cleaved yes); assay: Purified Enzyme Assay (ADP-Glo CSNK1D Kinase Assay); details: 2 nM CSNK1D; peptide substrate 150 μM; ATP 20 μM; 45 minutes at room temperature
Sequence (P48730 whole entry): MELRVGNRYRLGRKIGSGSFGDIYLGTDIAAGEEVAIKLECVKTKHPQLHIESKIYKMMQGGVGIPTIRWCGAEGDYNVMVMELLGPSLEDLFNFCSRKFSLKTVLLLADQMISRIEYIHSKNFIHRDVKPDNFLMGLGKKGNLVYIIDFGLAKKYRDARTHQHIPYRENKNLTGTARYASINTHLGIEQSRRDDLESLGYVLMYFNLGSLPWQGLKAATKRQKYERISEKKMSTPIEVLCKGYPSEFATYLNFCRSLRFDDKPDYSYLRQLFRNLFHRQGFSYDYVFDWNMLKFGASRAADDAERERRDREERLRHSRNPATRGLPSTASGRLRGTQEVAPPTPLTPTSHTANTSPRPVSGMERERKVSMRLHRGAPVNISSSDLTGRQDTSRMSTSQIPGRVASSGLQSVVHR
// classify(record): look up IC50 in ranges 1 (below 10 nM), 2 (10 nM to below 50 nM), 3 (50 nM or more)

Cc1nc2[nH]nc(C)c2c(-c2c(-c3ccc(F)cn3)nn3c2CC2(C3)CC2(F)F)c1F (single isomer, unassigned) [Example 266] = 3
Cc1cc(-c2c(-c3ccc(F)cn3)nn3c2OCCCC3)c2cn[nH]c2n1 = 2
Fc1ccc(-c2nn3c(c2-c2ccnc4[nH]nc(Cl)c24)CC2(C3)CC2(F)F)nc1 (single isomer, unassigned) [Example 256] = 2
CC1(C(F)(F)F)Cn2nc(-c3ccc(F)cc3)c(-c3ccnc4[nH]ncc34)c2CO1 (single isomer, unassigned) [Example 416] = 2
Fc1ccc(-c2nn3c(c2-c2ccnc4[nH]ccc24)COCC3)cc1 = 1

Hello team, could you let me know which band the following compound falls into: Cc1nc(-c2c(-c3ccc(F)cc3)nn3c2COC(C)(C(F)(F)F)C3)c2cn[nH]c2n1 (centres unmarked)
1

Hello team, could you let me know which band the following compound falls into: Fc1ccc(-c2nn3c(c2-c2ccnc4[nH]ncc24)CCC(F)(COC(F)(F)F)C3)nc1 (single isomer, unassigned) [Example 317]
3

Hello team, could you let me know which band the following compound falls into: C[C@H]1Cn2nc(-c3ccc(F)cn3)c(-c3ccnc4[nH]ncc34)c2CO1 (single isomer, unassigned)
2

Hello team, could you let me know which band the following compound falls into: Cc1nc(-c2c(-c3ccc(F)cn3)nn3c2CC[C@@H]2C[C@@H]23)c2cn[nH]c2n1 (relative stereo)
2

Hello team, could you let me know which band the following compound falls into: Fc1ccc(-c2nn3c(c2-c2ccnc4[nH]ncc24)CC2(C3)CC2(F)F)nc1 (single isomer, unassigned) [Example 255]
3

Hello team, could you let me know which band the following compound falls into: `Fc1ccc(-c2nn3c(c2-c2c(F)cnc4[nH]ccc24)CCCC3)nc1`
1

Hello team, could you let me know which band the following compound falls into: `CC1(C)Cn2nc(-c3ccc(F)cn3)c(-c3ccnc4[nH]nc(Br)c34)c2CO1`
1

Hello team, could you let me know which band the following compound falls into: `Cc1cc(-c2c(-c3ccc(F)cn3)nn3c2OCC2(CC2)C3)c2cn[nH]c2n1`
1

Hello team, could you let me know which band the following compound falls into: CC1CCOc2c(-c3ccn4nccc4c3)c(-c3ccc(F)cn3)nn21 (centres unmarked)
3

Hello team, could you let me know which band the following compound falls into: COCC1(F)CCc2c(-c3ccnc4[nH]ncc34)c(-c3ccc(F)cn3)nn2C1 (single isomer, unassigned)
1

Hello team, could you let me know which band the following compound falls into: `CC1(C)COc2c(-c3ccnc4ccsc34)c(-c3ccc(F)cn3)nn2C1`
1

Hello team, could you let me know which band the following compound falls into: `Cc1cc(-c2c(-c3cncc(F)c3)nn3c2COCC3)c2cn[nH]c2n1`
3

Hello team, could you let me know which band the following compound falls into: CCn1ncc2cc(-c3c(-c4ccc(F)cn4)nn4c3OCC(C)C4)cnc21 (centres unmarked)
3

Hello team, could you let me know which band the following compound falls into: [2H]C([2H])([2H])[C@@]1(C(F)(F)F)Cn2nc(-c3ccc(F)cn3)c(-c3cc(C)nc4[nH]nc(C)c34)c2CO1 (single isomer, unassigned)
3

Hello team, could you let me know which band the following compound falls into: `Cc1cc(-c2c(-c3ccc(F)cn3)nn3c2CC[C@H]3C)c2cn[nH]c2n1`
2

Hello team, could you let me know which band the following compound falls into: `Fc1ccc(-c2nn3c(c2-c2ccnc4cn[nH]c24)CCC3)nc1`
3
